The values you see were collected from patent US20240343803A1.

EXPERIMENTAL TARGET: T1, Full-length cynomolgus monkey TIGIT on CHO-K1 cells (CHO-K1 cynomolgus monkey TIGIT) (cynomolgus monkey)
T1 construct: NCBI XP_015300911.1
T1 sequence (chain, as listed by the source limits assumed): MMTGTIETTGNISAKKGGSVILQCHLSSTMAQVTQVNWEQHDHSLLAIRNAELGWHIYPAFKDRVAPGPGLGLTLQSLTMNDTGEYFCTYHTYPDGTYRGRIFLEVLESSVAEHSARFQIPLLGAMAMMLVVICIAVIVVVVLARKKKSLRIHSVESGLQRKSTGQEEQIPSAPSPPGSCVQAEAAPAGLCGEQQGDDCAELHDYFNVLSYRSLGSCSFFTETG
MEASUREMENT PROTOCOL: cell binding, CHO-K1 cynomolgus monkey TIGIT
Assignment: determine reported pEC50 for the given binders.
Convention used: pEC50 is expressed as -log10 of the molar concentration.

Data request, read-out pEC50, for TIGIT-070-H1L3 (antibody, V domains shown, Humanized anti-TIGIT antibody) VH: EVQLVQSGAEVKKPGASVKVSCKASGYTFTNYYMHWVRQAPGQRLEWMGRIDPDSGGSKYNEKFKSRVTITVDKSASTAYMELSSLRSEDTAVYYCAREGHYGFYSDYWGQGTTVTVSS VL: DIVMTQSPDSLAVSLGERATINCRVSENIYSYLAWYQQKPGQSPKLLVYNAKTLAEGVPDRFSGSGSGTDFTLTISSLQAEDVAVYYCQHHYGNPLTFGPGTKVDIK 9.95

Data request, read-out pEC50, for TIGIT-005-H2L1d (antibody, V domains shown, Humanized anti-TIGIT antibody with NG-site mutation in VL) VH: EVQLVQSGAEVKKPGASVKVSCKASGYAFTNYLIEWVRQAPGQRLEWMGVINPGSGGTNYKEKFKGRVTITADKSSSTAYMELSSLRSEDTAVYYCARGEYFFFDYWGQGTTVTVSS VL: DIVMTQSPDSLAVSLGERATINCKASQHVSNAVAWYQHKPGQSPKLLIYSASYRYTGVPDRFSGSGSGTDFTLTISSLQAEDVAVYYCQQHYNTPHTFGGGTKVEIK 10.25

Data request, read-out pEC50, for TIGIT-002-H2L1 (antibody, V domains shown, Humanized anti-TIGIT antibody) VH: EVQLQESGPGLVKPSETLSLTCAVSGYSITSDSWNWIRQPPGKKLEWIGYISYSGNTYYNPSLKSRVTISRDTSKNQFSLKLSSVTAADTAVYYCARLDFSNYGGAVDYWGQGTTVTVSS VL: DIVMTQTPLSLSVTPGQPASISCKASQNVRTAVAWYLQKPGQSPQLMIYSASYRYTGVPDRFSGSGSGTDFTLKISRVEAEDVGVYYCQQYYTTPWTFGGGTKVEIK 9.74
